Source listed as patent US20260049079A1.

# protocol: Hepatocyte Stability Assay (MLH)
# Type: in vitro ADME
# experimental-context: mouse hepatocytes, 0.5×10^6 cells/mL, 1 μM compound, 37° C.
readout: hepatocyte CLint at 1 µM (µL/min/1e6 cells)
I only need the number, in µL/min/1e6 cells, no unit after it.

Please review the following examples before continuing.
- compound: "O=C1CCc2c(Oc3ccc4c(c3)C[C@@H](c3nc(-c5ccc(F)cc5)c[nH]3)CO4)ccnc2N1 (single isomer, unassigned)"
  display-unit: "µL/min/1e6 cells"
  hepatocyte CLint at 1 µM: 11
- compound: "O=C1CCc2c(Oc3ccc4c(c3)CC(c3ncc(-c5ccc(F)cc5)[nH]3)CO4)ccnc2N1 (racemic)"
  display-unit: "µL/min/1e6 cells"
  hepatocyte CLint at 1 µM: 23.4

// switching to the query compound
QUERY: Fill in: hepatocyte CLint at 1 µM of O=C1CCc2c(Oc3ccc4c(c3)C[C@H](c3nc(-c5ccc(F)cc5)c[nH]3)CO4)ccnc2N1 (single isomer, unassigned) is ___
RESULT: 12.5

* * *

# protocol: Microsomal Stability Assay (MLM)
# Type: in vitro ADME
# experimental-context: mouse liver microsomes, 0.5 mg/mL protein, 1 μM compound, 37° C.
readout: microsomal CLint at 1 µM (µL/min/mg)
I only need the number, in µL/min/mg, no unit after it.

- compound: "O=C1CCc2c(Oc3ccc4c(c3)CC(c3nc(-c5cccs5)c[nH]3)CO4)ccnc2N1 (racemic) [B-rac]"
  display-unit: "µL/min/mg"
  microsomal CLint at 1 µM: 58.8
- compound: "O=C1CCc2c(Oc3ccc4c(c3)C[C@@H](c3nc(-c5ccc(F)cc5)c[nH]3)CO4)ccnc2N1 (single isomer, unassigned) [Compound A-1]"
  display-unit: "µL/min/mg"
  microsomal CLint at 1 µM: 16
- compound: "O=C1CCc2c(Oc3ccc4c(c3)CC(c3ncc(-c5ccc(F)cc5)[nH]3)CO4)ccnc2N1 (racemic) [A-rac]"
  display-unit: "µL/min/mg"
  microsomal CLint at 1 µM: 30.6

// switching to the query compound
QUERY: Fill in: microsomal CLint at 1 µM of O=C1CCc2c(Oc3ccc4c(c3)C[C@H](c3nc(-c5ccc(F)cc5)c[nH]3)CO4)ccnc2N1 (single isomer, unassigned) [Compound A-2] is ___
RESULT: 80.1

* * *

# key: entry, value: solubility thermodynamic at 24 h
# protocol: FeSSIF Solubility Assay
# Assay type: physicochemical
# experimental-context: fed state simulated intestinal fluid (FeSSIF), thermodynamic from solid, pH 5 acetate buffer, 37° C., read-out: FESSIF sol
I only need the number, in µg/mL, no unit after it.

- compound: "O=C1CCc2c(Oc3ccc4c(c3)C[C@@H](c3nc(-c5ccc(F)cc5)c[nH]3)CO4)ccnc2N1 (single isomer, unassigned) [Compound A-1]"
  solubility thermodynamic at 24 h (µg/mL): 9.9

QUERY: Fill in: solubility thermodynamic at 24 h of O=C1CCc2c(Oc3ccc4c(c3)C[C@H](c3nc(-c5ccc(F)cc5)c[nH]3)CO4)ccnc2N1 (single isomer, unassigned) [Compound A-2] is ___
RESULT: 9.4

* * *

# protocol: Plasma Protein Binding Assay (mPPB)
# Type: in vitro ADME
# experimental-context: mouse plasma, equilibrium dialysis, 5 μM, 4 hours, 37° C.
# key: entry, value: mPPB (% free)
I only need the number, in % free, no unit after it.

Please review the following examples before continuing.
- compound: "O=C1CCc2c(Oc3ccc4c(c3)C[C@H](c3nc(-c5ccc(F)cc5)c[nH]3)CO4)ccnc2N1 (single isomer, unassigned)"
  mPPB (% free): 0.9
- compound: "O=C1CCc2c(Oc3ccc4c(c3)CC(c3nc(-c5cccs5)c[nH]3)CO4)ccnc2N1 (racemic)"
  mPPB (% free): 0.7
- compound: "O=C1CCc2c(Oc3ccc4c(c3)C[C@@H](c3nc(-c5ccc(F)cc5)c[nH]3)CO4)ccnc2N1 (single isomer, unassigned)"
  mPPB (% free): 0.8

QUERY: Fill in: mPPB (% free) of O=C1CCc2c(Oc3ccc4c(c3)CC(c3ncc(-c5ccc(F)cc5)[nH]3)CO4)ccnc2N1 (racemic) is ___
RESULT: 1.8
